From: patent US12291519B2

Biological target: human Gal-1 (hGal-1)
Sequence (P09382 2-135 limits assumed): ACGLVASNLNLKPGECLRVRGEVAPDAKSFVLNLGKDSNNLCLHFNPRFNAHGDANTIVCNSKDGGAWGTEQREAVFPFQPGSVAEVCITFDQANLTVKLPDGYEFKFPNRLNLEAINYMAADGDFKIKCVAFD
Test: Competitive binding assay: biotinylated hGal-1 binding to microplate-adsorbed asialofetuin (ASF)
Conditions: Activity on hGal-1; binding of biotinylated hGal-1 to ASF-coated plates; mean values
Quantity measured: pIC50
The quantity pIC50 is defined as the negative base-10 logarithm of the molar concentration.

Prompt line: Dear colleague, I am looking for the recorded pIC50 of the following molecule: O=C([C@@H]1O[C@H](CO)[C@H](O)[C@H](n2cc(-c3cc(F)c(F)c(Cl)c3)nn2)[C@H]1O)N(Cc1ccccc1C(F)(F)F)[C@H]1CCCC[C@@H]1O
Response line: 6.27

Prompt line: Then this molecule: CO[C@@H]1[C@@H](n2cc(-c3ccc(Cl)c(OC(F)(F)F)c3)nn2)[C@@H](O)[C@@H](CO)O[C@H]1C(=O)N(c1cc(Cl)cc(C#N)c1)[C@H]1CCCC[C@@H]1O
Response line: 5.86

Prompt line: Then this molecule: COc1cc(C#N)cc(N(C(=O)[C@@H]2O[C@H](CO)[C@H](O)[C@H](n3cc(-c4cc(F)cc(Br)c4)nn3)[C@H]2OC)[C@H]2CCCC[C@@H]2O)c1
Response line: 6.17
